Cited source for all entries: PubChem BioAssay

Entries and their RAM network inhibition
assay details: RAM signaling pathway blockade in yeast – S. cerevisiae, Pdr1DBD-CYC8 efflux-inhibited sensitized strain, primary screen (AID 1298);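 note: 0% = DMSO untreated cells without growth and 100% = 10 µM 1-NA-PP1 full growth; higher means more yeast growth rescued from 5-FOA killing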
measurement parameters: S. cerevisiae cbk1-as DSE1-URA3 strain, 5-FOA growth OD615, 2 d; at 50 µM; active compounds read high
quantity measured: RAM network inhibition (%)

compound | quantity measured | reported
COc1ccccc1N1C(=O)C2CC=CC(C)C2C1=O (centres undefined) | RAM network inhibition | 2.25
CC(C)n1c(CCC(=O)O)ccc1-c1ccccc1 | RAM network inhibition | 1.3
CCc1ccccc1N1CC23C=CC(O2)C(C(=O)OC)C3C1=O (centres undefined) | RAM network inhibition | 5.27
COc1cccc(N2C(=O)C3CCCN3C2c2ccc(Cl)cc2)c1 (centres undefined) | RAM network inhibition | 2.53

----------
Entries and their viability
assay details: growth suppression of beta-catenin knockout HCT116, pilot screen, human colon tumor cells (AID 823);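 note: 0% = wells killed by 20 µM Hyamine and 100% = untreated DMSO cell wells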
measurement parameters: CellTiter-Glo, 60 h, at 10 µM, active compounds read low
Records with an inconclusive call do not appear.

molecule | viability / %
Cc1ccccc1-c1nc(CS(=O)CC(=O)NCCN2CCOCC2)c(C)o1 (centres undefined) | 101
Cc1cc(C(=O)NCC2CCCO2)n(-c2ccccc2)n1 (centres undefined) | 100
CC1CN(S(=O)(=O)c2ccc(C(=O)Nc3sc4c(c3C(N)=O)CCN(C)C4)cc2)CC(C)O1 (centres undefined) | 91.9
CN(C)C1NC(=O)c2cc(-c3ccccc3)sc2N1 (centres undefined) | 102
CC(=O)Oc1c(Cl)c(N2CCOCC2)c(OC(C)=O)c2ccccc12 | 70.4
CCOc1ccc(C2N(c3ccc(Cl)cc3)C(=O)C3CCCN32)cc1OC (centres undefined) | 98.7
CCOc1ccc(S(=O)(=O)N2CCN(S(=O)(=O)c3ccc(OCC)cc3)C(C)C2)cc1 (centres undefined) | 93
Cc1noc(C)c1CSCC(=O)OCC(=O)NC1CCCCC1 | 97.1
O=C(CCC1CC(=O)Nc2ccccc21)NCc1cccnc1 (centres undefined) | 102
CN1C(=O)CC(N2CCN(c3ncccn3)CC2)C1=O (centres undefined) | 103
COc1ccc(C(=O)Nc2cccc(C(C)=O)c2)cc1S(=O)(=O)N1CCOCC1 | 92
Cc1cc2oc(C(=O)NCc3ccncc3)c(C)c2cc1C | 96.4
O=C(NCCc1ccc(Cl)cc1)C1CC(=O)N(C2CCCCC2)C1 (centres undefined) | 94.6
COc1ccccc1N1CCN(c2cc(C)nc3nc(C)nn23)CC1 | 85.7

----------
assay details: inhibitors of the yeast RAM network, pilot screen, dse1pr::URA3 reporter, 5-FOA selection (AID 869);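 note: 0% = DMSO wells with no growth and 100% = 10 µM 1-NA-PP1 with full growth; RAM network block rescues cells from 5-FOA so hits raise OD615 growth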
measurement parameters: S. cerevisiae dse1pr::URA3 5-FOA growth, OD615, 2 d; at 10 µM; active compounds read high; strain carries analog-sensitive mutant Cbk1 kinase
Entries and their inhibition

compound | inhibition (%)
Cc1noc(C(=O)Nc2c(C)nn(Cc3ccccc3)c2C)c1Cl | 2.25
COC(=O)C1CCCN1C(C(=O)NC1CCCCC1)c1ccc(Cl)cc1 (stereo unspecified) | 0.02
c1ccc(CNc2nc3ccccc3n3cnnc23)nc1 | -0.44
COc1ccc(-c2nc(C#N)c(NCCN(C)C)o2)cc1 | 0.355
Cc1cc(C)c(S(=O)(=O)Nc2nnc(C)s2)c(C)c1 | 0.87
CCOC(=O)c1[nH]c2cc(OC)c(OC)cc2c1NC(=O)c1ccc2c(c1)OCO2 | 2.13

----------
assay details: growth suppression of PTEN-deleted HCT116, pilot screen, cell-based, HCT116 clonal line, CellTiter-Glo (AID 824);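 note: 0% = 20 µM Hyamine control and 100% = vehicle cell control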
measurement parameters: 60 h, at 10 µM, active compounds read low
Records with an inconclusive call do not appear. The source made the active and inactive calls.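 Rule for the calls: active = viability at or below 27.92% in each of two runs, the all-compound median minus 4 SD; inconclusive = no clear call, values can overlap the other calls; inactive = the rest.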
Entries and their viability
quantity measured: viability

compound | quantity measured | reported
CC1CCN(c2nc3c(c(=O)n(C)c(=O)n3C)n2CCSc2ncccn2)CC1 | viability | 96.3% (inactive)
CCC(Sc1nc(=O)cc(N)n1CCc1ccccc1)C(=O)Nc1cc(C)on1 (stereo not given) | viability | 95.7% (inactive)
CCCCCn1c(=O)[nH]c2cc(C(=O)O)ccc2c1=O | viability | 90.7% (inactive)
O=C(CCc1nc2ccccc2[nH]1)N1CCN(C(=O)c2ccco2)CC1 | viability | 96.7% (inactive)
O=C1CCCc2sccc2N1 | viability | 96.9% (inactive)

----------
assay details: OD615 S. cerevisiae growth inhibition, permissive medium, pilot counter-assay, permissive growth control for S. cerevisiae lifespan shortening project (AID 705)
measurement parameters: OD615, 24 h, at 10 µM, active compounds read high
Entries and their growth inhibition

compound | growth inhibition, %
O=C(CC1CCCCC1)NCCCN1CCOCC1 | 1.88
CC(NC(=O)C1CCCN(S(=O)(=O)c2cnc[nH]2)C1)c1ccccc1 (stereo not drawn) | 2.1
O=C(COc1ccc(S(=O)(=O)NC2CCCCC2)cc1)Nc1ccc2c(c1)OCCO2 | -2.47

----------
assay details: viability gain of MRP-1-high H69AR cells under doxorubicin, pilot screen, MRP-1 activator project, CellTiter-Glo, duplicate (AID 807);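 note: compound pretreatment 18-22 h then 72 h combined with doxorubicin; 0% = doxorubicin alone and 100% = vehicle without doxorubicin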
measurement parameters: H69AR viability with doxorubicin, CellTiter-Glo luminescence; at 10 µM; active compounds read high
Entries and their viability increase

molecule | viability increase / %
COc1cccc(OCCn2c(C)c(/C=N/n3cnnc3)c3ccccc32)c1 | -2.88
CC(=O)c1c(NCc2ccccc2)nc(=O)n(-c2ccccc2)c1C | -1.28
CC(=O)NC(CCS(C)(=O)=O)C(=O)Nc1ccc2c(c1)OCO2 (configuration not stated) | -0.58
O=C1c2ccccc2C(Nc2cccnc2)N1Cc1ccc2c(c1)OCO2 (configuration not stated) | -2.21
CCCCN(CC)CCNC(=O)c1cc2c(=O)n(C)c3ccccc3c2n1C | -5.86
CC(C)C(C(=O)NC(C)(C)C)N1C(=O)c2ccccc2C1=O (configuration not stated) | 0.34
Nc1nc(-c2ccc3c(c2)CCCC3)cs1 | -0.58
CCc1nnc(NC(=O)c2ccc(S(=O)(=O)N3CCOCC3)cc2)s1 | -1.63
COc1ccc(N(CC(=O)NCc2cccs2)S(=O)(=O)c2cccnc2)cc1 | -0.05
O=C(CSc1nc2c(cnn2-c2ccc(F)cc2)c(=O)[nH]1)N1CCCc2ccccc21 | -3.32
COc1cccc(CNC(=O)CCS(=O)(=O)c2cccc3nonc23)c1 | -3.04
COCc1cc(CN2CCCC2)c(O)c2ncccc12 | 0.15
O=C(NCCc1ccccc1)C1CCN(S(=O)(=O)c2cccnc2)CC1 | -0.16
CC(=O)N1CCN(c2ccc(NCc3ccc(C)s3)cc2)CC1 | -2.32
CCOC(=O)c1nn(-c2ccc3c(c2)CCN3C(C)=O)cc1O | -1.4
COC(=O)c1c(C(=O)OC)c2n(c1C)Cc1ccccc1C2 | -1.39
Cc1ccccc1Cn1c(CN2CCN(C(=O)c3ccco3)CC2)nc2c1c(=O)n(C)c(=O)n2C | -4.75

----------
assay details: growth suppression of PTEN-deleted HCT116, pilot screen, cell-based, HCT116 clonal line, CellTiter-Glo (AID 824);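 note: 0% = 20 µM Hyamine control and 100% = vehicle cell control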
measurement parameters: 60 h, at 10 µM, active compounds read low
Results filed as inconclusive are left out.

structure | viability [%]
Cn1c(=O)oc2cc(S(=O)(=O)N3CCc4ccccc4C3)ccc21 | 91.9
CCn1c(=NC(=O)CN2C(=O)CCC2=O)sc2c(C)cc(C)cc21 | 91.2
CN(C)c1nc(N)nc(N(c2ccccc2)c2ccccc2)n1 | 90.8
O=S(=O)(NCc1csc(-c2cccnc2)n1)c1cccs1 | 90
Cc1ccc(OCCCN(C)C)c(Br)c1 | 87.7

----------
assay details: RAM signaling pathway blockade in yeast – S. cerevisiae, Pdr1DBD-CYC8 efflux-inhibited sensitized strain, primary screen (AID 1298);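 note: 0% = DMSO untreated cells without growth and 100% = 10 µM 1-NA-PP1 full growth; higher means more yeast growth rescued from 5-FOA killing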
measurement parameters: S. cerevisiae cbk1-as DSE1-URA3 strain, 5-FOA growth OD615, 2 d; at 50 µM; active compounds read high
Label satisfied when RAM network inhibition is at or above 3%; otherwise label not satisfied.

compound | category
CC(C)Sc1nnc(NC(=O)C2CC2)s1 | satisfied
Cc1ccc(F)c(NC(=O)C2CCCCC2C(=O)O)c1 (centres undefined) | not satisfied
Nc1nc(SCc2ccc(Cl)cc2)ns1 | not satisfied
COC(=O)C1CCN(C(=O)c2ccccc2NC(C)=O)CC1 | not satisfied
N#Cc1ccc(Oc2cccnc2)cc1C#N | not satisfied
CCc1ccc(NC(=O)c2cnc3n(c2=O)CCS3)cc1 | not satisfied
CCOC(=O)CSc1n[nH]c(-c2ccco2)n1 | satisfied
CCOc1ccc(/C(=N\O)C(C)NO)cc1 (centres undefined) | satisfied
CCOC(=O)Nc1ccc2c(c1)N(C(=O)N(CC)CC)c1ccccc1CC2 | not satisfied

----------
assay details: inhibitors of the yeast RAM network, pilot screen, dse1pr::URA3 reporter, 5-FOA selection (AID 869);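 note: 0% = DMSO wells with no growth and 100% = 10 µM 1-NA-PP1 with full growth; RAM network block rescues cells from 5-FOA so hits raise OD615 growth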
measurement parameters: S. cerevisiae dse1pr::URA3 5-FOA growth, OD615, 2 d; at 10 µM; active compounds read high; strain carries analog-sensitive mutant Cbk1 kinase
Calls of active or inactive are those of the source.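 Rule for the calls: active = inhibition over a set limit, the all-compound mean plus 3 SD, in both replicate runs; inconclusive = over that limit in just one replicate run; inactive = at or under that limit in both runs.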
quantity measured: inhibition

compound | reported
CCOC(=O)N1CCC(NC(=O)Cn2cc3c(n2)CCCCC3)CC1 | -0.43% (inactive)
O=C(C1CC(=O)N(C2CCCC2)C1)N1CCN(c2ccc(F)cc2)CC1 (stereo unspecified) | 1.39% (inactive)
O=C(NCc1ccc(F)cc1)C1CCC(=O)N1CCc1ccccc1 (stereo unspecified) | 0.22% (inactive)
CC(C)OCCCNC(=O)c1cc2c(=O)n(C)c3ccccc3c2n1C | 0.185% (inactive)
COC1=CC(=O)OC12CCCCC2 | 1.27% (inactive)
O=C(NCC1CCCO1)c1ccc2c(c1)OCO2 (stereo unspecified) | 0.385% (inactive)
O=C(Cc1c(F)cccc1Cl)c1ccc(O)cc1O | 0.3% (inactive)
CCSc1nnc(NC(=O)CSc2nc3c(c(=O)n2-c2ccccc2)SCC3)s1 | 2.82% (inactive)
COCCn1c(SCCN2CCOCC2)nc2c1c(=O)[nH]c(=O)n2C | 1.45% (inactive)
CC(C)(C)n1nc2c(c1NC(=O)Cc1ccc(F)cc1)CSC2 | 2.36% (inactive)
CCCC(=O)Nc1ccccc1-c1nnc(SC)[nH]c1=O | 1.06% (inactive)
O=C(CSc1nc2ccccc2c(=O)[nH]1)N1CCCCC1 | 0.395% (inactive)
CC1(C)C(c2ccc(Cl)cc2)=[N+]([O-])C2(CCCC/C2=N\O)N1O (stereo unspecified) | 0.555% (inactive)
CC(C)C(=O)Nc1ccc(Nc2ccccc2)cc1 | 0.87% (inactive)
Oc1cc(Cc2ccccc2)cnc1CN1CCOCC1 | 0.81% (inactive)
O=C(Cn1ncc2ccccc21)N1CCc2ccccc21 | 1.26% (inactive)
